Values from patent US20250243171A1

# study-system: Ba/F3 stable cells (Homo sapiens, UniProt P00533, DUP767-769, cells depend on it)
# Construct: EC50 Ba/F3-EGFR V769-D770insASV; other: Ba/F3-EGFR V769-D770insASV cells, 72 h, CCK-8
# Sequence (P00533 with tags, fused parts or gaps DUP767-769): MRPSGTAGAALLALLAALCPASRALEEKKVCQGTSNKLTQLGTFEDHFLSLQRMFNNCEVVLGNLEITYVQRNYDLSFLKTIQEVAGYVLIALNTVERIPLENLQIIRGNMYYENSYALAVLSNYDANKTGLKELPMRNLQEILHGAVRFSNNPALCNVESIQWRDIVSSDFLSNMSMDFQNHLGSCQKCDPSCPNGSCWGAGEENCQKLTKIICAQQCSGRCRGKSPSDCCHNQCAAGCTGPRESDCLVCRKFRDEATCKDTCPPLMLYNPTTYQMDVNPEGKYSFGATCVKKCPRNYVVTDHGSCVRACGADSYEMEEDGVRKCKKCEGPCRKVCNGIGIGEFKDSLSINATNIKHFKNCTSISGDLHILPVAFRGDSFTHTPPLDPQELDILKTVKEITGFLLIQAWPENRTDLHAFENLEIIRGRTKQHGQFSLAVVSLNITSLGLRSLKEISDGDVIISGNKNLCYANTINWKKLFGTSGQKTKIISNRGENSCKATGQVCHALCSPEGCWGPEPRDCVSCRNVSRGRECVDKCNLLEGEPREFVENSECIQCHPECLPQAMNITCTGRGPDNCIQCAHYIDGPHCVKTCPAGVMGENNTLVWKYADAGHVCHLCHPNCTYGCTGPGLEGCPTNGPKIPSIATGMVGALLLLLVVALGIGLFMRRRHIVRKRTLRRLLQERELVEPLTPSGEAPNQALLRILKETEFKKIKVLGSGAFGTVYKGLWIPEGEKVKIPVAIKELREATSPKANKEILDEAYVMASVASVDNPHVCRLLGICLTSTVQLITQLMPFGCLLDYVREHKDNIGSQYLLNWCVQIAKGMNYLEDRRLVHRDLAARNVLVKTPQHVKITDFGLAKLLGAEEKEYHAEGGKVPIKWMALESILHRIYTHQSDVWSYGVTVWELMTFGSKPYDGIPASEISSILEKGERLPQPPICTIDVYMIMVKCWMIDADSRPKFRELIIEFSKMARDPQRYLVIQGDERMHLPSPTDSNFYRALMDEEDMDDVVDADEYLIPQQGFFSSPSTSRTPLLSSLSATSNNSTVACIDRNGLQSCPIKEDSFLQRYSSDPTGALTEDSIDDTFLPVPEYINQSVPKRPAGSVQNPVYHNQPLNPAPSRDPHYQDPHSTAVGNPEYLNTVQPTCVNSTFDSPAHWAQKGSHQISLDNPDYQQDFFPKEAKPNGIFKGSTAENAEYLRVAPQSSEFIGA
# assay-details: EC50 assay: Ba/F3 stable cell proliferation (CCK-8, 72 h)
# settings: Ba/F3-EGFR V769-D770insASV cells
# Description: 4,000 Ba/F3 stable cells/90 μL/well were plated onto 96-well cell culture plate (Grenier, Cat.No. 655180) and incubated at 37° C. with a humidified atmosphere of 5% CO2 for 2 h. Then the cells were treated with 10 μL compounds at serial titration. […] 10 μL the cell proliferation reagent CCK-8 (Dojindo, Cat.No. CK04 1000T) was added into each well and incubated the plate at 37° C. for 4 hours, the GD value was measured by SPECTRAmax plus (Molecular Devices) at 450 nm. […]
pEC50: −log10 of the molar value.

compound: C=CC(=O)N1CCC(Oc2cc3c(OCc4cccc(Cl)c4)ncnc3cc2OC)CC1 [Compound 107]
pEC50: 6.00 to 6.70
//
compound: C=CC(=O)N1CCC(Oc2cc3c(NCc4ccc(Cl)c(F)c4)ncnc3cc2OC)CC1 [Compound 113]
pEC50: 6.00 to 6.70
//
compound: C=CC(=O)N1CCC=C(c2cc3c(Nc4ccc(Cl)c(Cl)c4F)ncnc3cc2OC)C1 [Compound 186]
pEC50: ≥ 6.70
//
compound: C=CC(=O)N1CCC(Oc2c(OC)cc3ncnc4c3c2NC(=O)N4c2ccc(Cl)c(Cl)c2F)C1 (centres unmarked) [Compound 205]
pEC50: < 6.00
//
compound: C=CC(=O)N[C@H]1C[C@@H](Oc2cc3c(Nc4ccc(Cl)c(Cl)c4F)ncnc3cc2OC2COC2)C1 [Compound 104]
pEC50: ≥ 6.70
//
compound: C#CC(=O)N[C@H]1C[C@H](Oc2cc3c(Nc4ccc5ccccc5c4)ncnc3cc2OC)C1 [Compound 48]
pEC50: ≥ 6.70
//
compound: C=CC(=O)N1CCC(Oc2cc3c(Nc4ccc5ncsc5c4)ncnc3cc2OC)CC1 [Compound 145]
pEC50: 6.00 to 6.70
//
compound: C=CC(=O)N1CCC(Oc2c(OC)cc3ncnc4c3c2NC(=O)N4c2ccc(Cl)c(Cl)c2F)CC1 [Compound 199]
pEC50: 6.00 to 6.70
//
compound: C#CC(=O)N1CCCC(c2ccc3ncnc(Nc4ccc(Cl)c(Cl)c4F)c3c2)C1 (centres unmarked) [Compound 61]
pEC50: ≥ 6.70
//
compound: C=CC(=O)N1CCC(Oc2cc3c(NCc4cccc(I)c4)ncnc3cc2OC)CC1 [Compound 125]
pEC50: 6.00 to 6.70
//
compound: C=CC(=O)NC1CC(Nc2cc3c(Nc4ccc(Cl)c(Cl)c4F)ncnc3cc2OC)C1 (centres unmarked) [Compound 92]
pEC50: ≥ 6.70
//
compound: C=CC(=O)N1CCC(Oc2c(OC)cc3ncnc4c3c2NC(=O)N4c2ccc(Cl)c(Cl)c2)CC1 [Compound 215]
pEC50: < 6.00
//
compound: C=CC(=O)N1CCC(Oc2cc3c(NC(CC(=O)O)c4cccc(Cl)c4)ncnc3cc2OC)CC1 (centres unmarked) [Compound 129]
pEC50: < 6.00
//
compound: C#CC(=O)N[C@H]1C[C@@H](Oc2cc3c(Nc4cccc5c4CCC5)ncnc3cc2OC)C1 [Compound 45]
pEC50: < 6.00
//
compound: C#CC(=O)NC1CC(Oc2cc3c(Nc4cccc5ccccc45)ncnc3cc2OC)C1 (centres unmarked) [Compound 46]
pEC50: ≥ 6.70
//
compound: C=CC(=O)N1CC(c2cc3c(Nc4ccc(Cl)c(Cl)c4F)ncnc3cc2OC2COC2)C1 [Compound 25]
pEC50: ≥ 6.70
//
compound: CC#CC(=O)NC1CC(Oc2cc3c(Nc4ccc(Cl)c(Cl)c4F)ncnc3cc2OC)C1 (centres unmarked) [Compound 43]
pEC50: 6.00 to 6.70
//
compound: C=CC(=O)NC1CC(Oc2cc3c(Nc4ccc5c(c4)CCCC5O)ncnc3cc2OC)C1 (centres unmarked) [Compound 71]
pEC50: < 6.00
//
compound: C=CC(=O)N[C@H]1C[C@@H](Oc2cc3c(C(=O)N[C@H](C)c4ccc(F)cc4)ncnc3cc2OC)C1 [Compound 97]
pEC50: < 6.00
//
compound: C=CC(=O)N[C@H]1C[C@H](Oc2cc3c(Nc4ccc(C#N)c(Cl)c4)ncnc3cc2OC)C1 [Compound 86]
pEC50: < 6.00
//
compound: COc1cc2ncnc(Nc3ccc(Cl)c(Cl)c3F)c2cc1OC1CCCN(C#N)C1 (centres unmarked) [Compound 198]
pEC50: 6.00 to 6.70
//
compound: C=CC(=O)N1CCC(Oc2cc3c(Nc4ccc5c(ccn5C)c4)ncnc3cc2OC)CC1 [Compound 170]
pEC50: 6.00 to 6.70
//
compound: C=CC(=O)N1CCC(Oc2cc3c(C(=O)c4ccc(OC)cc4)ncnc3cc2OC)CC1 [Compound 174]
pEC50: < 6.00
//
compound: C=C(F)C(=O)N1CC(c2cc3c(Nc4ccc(Cl)c(Cl)c4F)ncnc3cc2OC)C1 [Compound 38]
pEC50: 6.00 to 6.70
//
compound: C=CC(=O)N1CCC(Oc2cc3c(Nc4ccc5c(c4)CCC5)ncnc3cc2OC)CC1 [Compound 153]
pEC50: ≥ 6.70
//
compound: C=CC(=O)N1CCC(Oc2cc3c(Nc4cccc5ccccc45)ncnc3cc2OC)CC1 [Compound 149]
pEC50: ≥ 6.70
//
compound: C=CC(=O)N1CC(c2cc3c(Nc4ccc(Cl)c(Cl)c4F)ncnc3cc2OC2CCOCC2)C1 [Compound 27]
pEC50: ≥ 6.70
//
compound: C=CC(=O)NC1CC(Oc2cc3c(Nc4ccc(F)c(Cl)c4)ncnc3cc2OC)C1 (centres unmarked) [Compound 85]
pEC50: 6.00 to 6.70
//
compound: C=CC(=O)NC1CC(Oc2cc3c(Nc4cccc5c4CCC5)ncnc3cc2OC)C1 (centres unmarked) [Compound 88]
pEC50: < 6.00
//
compound: C=CC(=O)N1CCC(Oc2cc3c(NCc4ccc(Cl)cc4)ncnc3cc2OC)CC1 [Compound 108]
pEC50: < 6.00
//
compound: C=CC(=O)N1CCC(Oc2cc3c(Nc4ccc5nccnc5c4)ncnc3cc2OC)CC1 [Compound 144]
pEC50: < 6.00
//
compound: C=CC(=O)N[C@H]1C[C@@H](Oc2cc3c(Nc4ccc(Cl)c(Cl)c4F)ncnc3cc2OC)C1 [Compound 66]
pEC50: ≥ 6.70
